These entries and their values trace back to patent US11780830B2.

Target under test: recombinant human DAO (diamine oxidase) (Homo sapiens)
Construct: purchased R&D systems
Experimental details: Activity on recombinant human DAO, method similar to the VAP-1 assay
Format: biochemical
Condition: substrate 1 mM putrescine; read-out: Inhibitory Activity (IC50, nM) DAO
Counter-ions that a name gives are not always drawn.
IC50 strictly less than 1000 nM = true (1). Otherwise false (0).

These recorded examples may help you get a feel for the data.
Compound	Assigned label
NC/C(=C\F)Cn1ncn(Cc2ccc(-c3ccc(N4CCNCC4)nc3)s2)c1=O	false (0)
Cc1cc(-c2ccc(Cn3cnn(C/C(=C/F)CN)c3=O)s2)cc2c(C(F)(F)F)cc(=O)[nH]c12	true (1)

Ask: Please check: IC50 for `CN1C(=O)CCc2cc(-c3ccc(CCn4cnn(C/C(=C/F)CN)c4=O)s3)ccc21` , strictly under 1000 nM or not?
Reply: true (1)

Ask: Report whether reported IC50 is lower than 1000 nM (strictly) for NC/C(=C/F)Cn1ncn(Cc2ccc(-c3ccc(N)cc3)s2)c1=O [Example 3, hydrochloride]
Reply: true (1)

Ask: Is it true that IC50 reported for `NC/C(=C\F)Cn1ncn(Cc2ccc(-c3cn[nH]c3)s2)c1=O` is less than 1000 nM?
Reply: false (0)

Ask: Dear colleague, could you confirm whether IC50 of NC/C(=C\F)Cn1ncn(Cc2ccc(/C=C/c3ccsc3)s2)c1=O [Example 121, hydrochloride] falls below 1000 nM? Thanks.
Reply: false (0)

Ask: # TODO verify IC50 < 1000 nM strictly for this compound: NC/C(=C\F)Cn1ncn(Cc2ccc(-c3ccc(N4CCCC4)cc3)s2)c1=O [Example 20, hydrochloride]
Reply: false (0)

* * *

Target under test: recombinant human MAO-A (monoamine oxidase-A) (Homo sapiens)
Construct: purchased Sigma-Aldrich
Sequence (P21397 whole entry): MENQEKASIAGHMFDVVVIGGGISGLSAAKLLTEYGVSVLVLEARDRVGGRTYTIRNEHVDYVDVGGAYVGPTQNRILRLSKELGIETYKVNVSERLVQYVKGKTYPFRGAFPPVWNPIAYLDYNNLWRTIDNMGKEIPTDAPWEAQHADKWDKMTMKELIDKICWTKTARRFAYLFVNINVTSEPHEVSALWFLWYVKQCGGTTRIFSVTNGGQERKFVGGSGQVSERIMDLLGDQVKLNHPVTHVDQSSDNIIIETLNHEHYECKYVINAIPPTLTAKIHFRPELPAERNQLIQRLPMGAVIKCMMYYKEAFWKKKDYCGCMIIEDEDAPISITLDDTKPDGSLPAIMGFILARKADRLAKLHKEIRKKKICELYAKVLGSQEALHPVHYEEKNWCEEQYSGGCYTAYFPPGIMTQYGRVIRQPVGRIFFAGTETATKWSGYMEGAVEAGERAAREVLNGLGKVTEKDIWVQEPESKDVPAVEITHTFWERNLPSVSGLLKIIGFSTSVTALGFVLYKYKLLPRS
Experimental details: Activity on recombinant human MAO-A, method similar to the VAP-1 assay
Format: biochemical
Condition: substrate 0.5 mM tyramine; read-out: Inhibitory Activity (IC50, nM) MAO-A
Structures can show the parent of a compound that is named as a salt.
Measurement type: IC50 (nM)
Your answer is read as nM, so omit the unit and give the number.

Completed entries (count: 3):
Molecule	IC50 / nM
NC/C(=C\F)Cn1ncn(Cc2ccc(-c3cnn(Cc4ccccc4)c3)s2)c1=O [Example 151]	59000
NC/C(=C\F)Cn1ncn(Cc2ccc(-c3ccc4c(c3F)NCCO4)s2)c1=O [Example 106]	11000
NC/C(=C\F)Cn1ncn(Cc2ccc(-c3ccc4c(c3)NCCO4)s2)c1=O [Example 105]	38400

Pending molecule:
Ask: Fill blank: measured IC50 of the molecule COc1cc(COc2c(C)cc(-c3ccc(Cn4cnn(C/C(=C/F)CN)c4=O)s3)cc2C)cc(OC)c1 [Example 18, hydrochloride] is ____.
Reply: 13000

* * *

Target under test: recombinant human MAO-B (monoamine oxidase-B) (Homo sapiens, UniProt P27338)
Construct: purchased Sigma-Aldrich
Sequence (P27338 whole entry): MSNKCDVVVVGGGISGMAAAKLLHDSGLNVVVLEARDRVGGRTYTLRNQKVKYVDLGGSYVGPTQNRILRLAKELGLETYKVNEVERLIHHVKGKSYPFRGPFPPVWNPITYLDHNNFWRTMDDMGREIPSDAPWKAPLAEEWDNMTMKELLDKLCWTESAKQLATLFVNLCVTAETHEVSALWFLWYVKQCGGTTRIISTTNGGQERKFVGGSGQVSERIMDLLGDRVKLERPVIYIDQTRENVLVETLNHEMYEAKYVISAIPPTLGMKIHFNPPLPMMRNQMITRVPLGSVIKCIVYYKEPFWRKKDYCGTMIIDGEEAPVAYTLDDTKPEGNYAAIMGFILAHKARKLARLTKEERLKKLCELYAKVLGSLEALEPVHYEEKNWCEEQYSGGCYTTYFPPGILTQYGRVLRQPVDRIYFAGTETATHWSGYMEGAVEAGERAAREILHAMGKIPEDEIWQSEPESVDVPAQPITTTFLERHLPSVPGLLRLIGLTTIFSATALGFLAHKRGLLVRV
Experimental details: Activity on recombinant human MAO-B, method similar to the VAP-1 assay
Type: biochemical
Condition: substrate 1 mM benzylamine; read-out: Inhibitory Activity (IC50, nM) MAO-B
Counter-ions that a name gives are not always drawn.
Measurement type: IC50 (nM)
Your answer should be a plain number; it is taken to be in nM.

Some entries whose results are on file:
Compound	Measurement type	Display unit	Readout value
NC/C(=C\F)Cn1ncn(Cc2ccc(-c3cnc4scnc4c3)s2)c1=O [Example 64, hydrochloride]	IC50	nM	2200
N#Cc1ccc(-c2ccc(Cn3cnn(C/C(=C/F)CN)c3=O)s2)cn1 [Example 50, hydrochloride]	IC50	nM	3700
NC/C(=C\F)Cn1ncn(Cc2ccc(-c3ccc4c(c3)COC4)s2)c1=O [Example 193]	IC50	nM	85
CCn1cc(-c2ccc(Cn3cnn(C/C(=C/F)CN)c3=O)s2)ccc1=O [Example 194]	IC50	nM	1500
NC/C(=C\F)Cn1ncn(Cc2ccc(-c3cc4c(cc3F)OCCN4)s2)c1=O [Example 107]	IC50	nM	320
Cc1c(-c2ccc(Cn3cnn(C/C(=C/F)CN)c3=O)s2)ccc2c1NCCO2 [Example 108]	IC50	nM	3200

Ask: Consider the compound CN1CCNc2cc(-c3ccc(Cn4cnn(C/C(=C/F)CN)c4=O)s3)ccc21 [Example 104] and give its measured IC50.
Reply: 1200

Ask: Field request: IC50 | item: NC/C(=C\F)Cn1ncn(Cc2ccc(-c3ccc(N4CCCC4=O)cc3)s2)c1=O [Example 21, hydrochloride]
Reply: 3000

Ask: I'd like to know its IC50. The compound in question is NC/C(=C\F)Cn1ncn(Cc2ccc(-c3ccc(OC(F)F)cc3)s2)c1=O [Example 170]
Reply: 190

* * *

Target under test: recombinant human MAO-B (monoamine oxidase-B) (Homo sapiens)
Construct: purchased Sigma-Aldrich
Experimental details: Activity on recombinant human MAO-B, method similar to the VAP-1 assay
Format: biochemical
Condition: substrate 1 mM benzylamine; read-out: Inhibitory Activity (IC50, nM) MAO-B
Where a name gives a salt, the structure may show the parent alone.
Readings of IC50 for the listed compounds
Respond numerically; units are nM and should not be typed.

Guide cases for IC50, answers given:
Compound	IC50 / nM
CC(=O)c1ccc(-c2ccc(Cn3cnn(C/C(=C/F)CN)c3=O)s2)s1	470
CN(C)C(=O)c1cccc(-c2ccc(Cn3cnn(C/C(=C/F)CN)c3=O)s2)c1	6600

Ask: Which value of IC50 has been reported for Cc1cc(-c2ccc(Cn3cnn(C/C(=C/F)CN)c3=O)s2)cc2c1OCC(=O)N2 [Example 91, hydrochloride] in the records?
Reply: 3200

* * *

Target under test: recombinant human DAO (diamine oxidase) (Homo sapiens)
Construct: purchased R&D systems
Sequence (P19801 20-751): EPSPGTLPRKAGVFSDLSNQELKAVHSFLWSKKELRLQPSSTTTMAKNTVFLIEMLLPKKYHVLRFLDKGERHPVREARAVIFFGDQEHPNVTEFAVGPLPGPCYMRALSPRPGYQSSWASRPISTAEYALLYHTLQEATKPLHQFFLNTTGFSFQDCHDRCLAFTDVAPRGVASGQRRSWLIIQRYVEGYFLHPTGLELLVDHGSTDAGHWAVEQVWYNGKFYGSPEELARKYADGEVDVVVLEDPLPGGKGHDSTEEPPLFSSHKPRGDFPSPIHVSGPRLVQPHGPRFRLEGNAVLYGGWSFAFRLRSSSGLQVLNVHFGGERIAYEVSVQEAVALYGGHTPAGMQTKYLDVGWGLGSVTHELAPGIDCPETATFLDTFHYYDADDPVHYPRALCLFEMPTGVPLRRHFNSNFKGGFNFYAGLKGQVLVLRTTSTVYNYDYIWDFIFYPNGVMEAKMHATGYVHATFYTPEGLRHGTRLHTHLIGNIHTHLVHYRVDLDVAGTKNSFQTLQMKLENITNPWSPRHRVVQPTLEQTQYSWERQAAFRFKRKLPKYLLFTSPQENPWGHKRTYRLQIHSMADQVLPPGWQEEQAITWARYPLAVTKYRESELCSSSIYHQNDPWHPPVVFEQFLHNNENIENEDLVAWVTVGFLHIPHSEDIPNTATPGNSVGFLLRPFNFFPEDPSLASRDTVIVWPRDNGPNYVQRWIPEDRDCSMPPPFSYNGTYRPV
Experimental details: Activity on recombinant human DAO, method similar to the VAP-1 assay
Type: biochemical
Condition: substrate 1 mM putrescine; read-out: Inhibitory Activity (IC50, nM) DAO
Structures can show the parent of a compound that is named as a salt.
# note: boundary value 200 nM maps to N; IC50 below it maps to Y

Below are worked cases with known answers.
Compound	Assigned label
NC/C(=C\F)Cn1ncn(Cc2ccc(C#Cc3cnc4c(c3)OCCN4)s2)c1=O	N
Cc1cc(-c2ccc3sc(Cn4cnn(C/C(=C/F)CN)c4=O)cc3c2)cc2c1NC(=O)CC2	N
COC(=O)c1cc(F)cc(-c2ccc(Cn3cnn(C/C(=C/F)CN)c3=O)s2)c1 [Example 13, hydrochloride]	N
NC/C(=C\F)Cn1ncn(Cc2ccc(-c3ccc(C(=O)N4CCOCC4)cc3)s2)c1=O [Example 27, hydrochloride]	N
CC(=O)N1CC=C(c2ccc(Cn3cnn(C/C(=C/F)CN)c3=O)s2)CC1	N

Ask: Consider `CS(=O)(=O)c1ccc(-c2csc(Cn3cnn(C/C(=C/F)CN)c3=O)c2)cc1` . Does its IC50 lie strictly below 200 nM?
Reply: N

Ask: Just wondering, is IC50 of NC/C(=C\F)Cn1ncn(Cc2ccc(-c3ccc4c(c3)NC(=O)CO4)s2)c1=O [Example 90, hydrochloride] below 200 nM?
Reply: N

Ask: # strict comparison: is reported IC50 < 200 nM? input = NC/C(=C\F)Cn1ncn(Cc2ccc(-c3ccc4c(c3)COC(=O)N4)s2)c1=O [Example 101, hydrochloride]
Reply: N

Ask: Check if IC50 falls below 200 nM for NC/C(=C\F)Cn1ncn(Cc2ccc(-c3ccc(C(F)(F)F)nc3)s2)c1=O [Example 49, hydrochloride] .
Reply: Y

Ask: Below 200 nM on IC50? Entry `NC/C(=C\F)Cn1ncn(Cc2ccc(-c3ccc(=O)n(Cc4ccccc4)c3)s2)c1=O`
Reply: Y

Ask: Could you please tell me whether IC50 recorded for NC/C(=C\F)Cn1ncn(Cc2ccc(-c3ccc(S(=O)(=O)N4CCOCC4)cc3)s2)c1=O [Example 29, hydrochloride] is less than 200 nM?
Reply: Y

Ask: Would you kindly verify if IC50 of NC/C(=C\F)Cn1ncn(Cc2ccc(-c3ccc(S(=O)(=O)N4CCOCC4)cc3)s2)c1=O [Example 198] is strictly less than 200 nM?
Reply: N
